Listed here: items and their measured log10 Ki.
Tested on: human 5-HT1A receptors (Homo sapiens)
Construct: expressed in transfected cells; host or cells: CHO cells
Sequence (P08908 1-422): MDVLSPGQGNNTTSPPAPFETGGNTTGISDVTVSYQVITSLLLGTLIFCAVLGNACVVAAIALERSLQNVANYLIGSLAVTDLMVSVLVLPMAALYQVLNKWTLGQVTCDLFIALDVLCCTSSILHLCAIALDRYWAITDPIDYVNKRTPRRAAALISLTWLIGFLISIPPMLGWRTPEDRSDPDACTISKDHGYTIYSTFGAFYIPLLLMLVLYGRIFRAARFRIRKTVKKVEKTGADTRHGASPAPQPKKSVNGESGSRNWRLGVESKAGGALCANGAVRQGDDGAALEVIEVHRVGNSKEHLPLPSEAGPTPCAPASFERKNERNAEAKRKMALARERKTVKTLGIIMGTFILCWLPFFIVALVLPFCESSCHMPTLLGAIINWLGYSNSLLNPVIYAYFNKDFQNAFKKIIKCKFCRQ
Assay explanation: [3H] 8-OHDPAT displacement from 5-HT1A receptor in stably transfected CHO cells
Assay type: binding
The common logarithm of Ki in nM is what is listed.

What value of measured log10 Ki is listed for Nc1ccc2c(c1)O[C@@H](CN1CC=C(c3c[nH]c4ccccc34)CC1)CO2 (single isomer, unassigned) [Example 3] ? 1.49

Give its log10 Ki value. Item: Fc1cccc2c1OC(CN1CC=C(c3c[nH]c4ccccc34)CC1)CO2 (stereo not drawn) [Example 12] 1.55

----------
Quick list: pKi per entry.
Tested on: serotonin transporter (Rattus norvegicus, UniProt P31652)
Construct: displace ^3H-paroxetine from male rat frontal cortical membranes; from tissue; host or cells: male rat frontal cortex membranes
Sequence (P31652 whole entry): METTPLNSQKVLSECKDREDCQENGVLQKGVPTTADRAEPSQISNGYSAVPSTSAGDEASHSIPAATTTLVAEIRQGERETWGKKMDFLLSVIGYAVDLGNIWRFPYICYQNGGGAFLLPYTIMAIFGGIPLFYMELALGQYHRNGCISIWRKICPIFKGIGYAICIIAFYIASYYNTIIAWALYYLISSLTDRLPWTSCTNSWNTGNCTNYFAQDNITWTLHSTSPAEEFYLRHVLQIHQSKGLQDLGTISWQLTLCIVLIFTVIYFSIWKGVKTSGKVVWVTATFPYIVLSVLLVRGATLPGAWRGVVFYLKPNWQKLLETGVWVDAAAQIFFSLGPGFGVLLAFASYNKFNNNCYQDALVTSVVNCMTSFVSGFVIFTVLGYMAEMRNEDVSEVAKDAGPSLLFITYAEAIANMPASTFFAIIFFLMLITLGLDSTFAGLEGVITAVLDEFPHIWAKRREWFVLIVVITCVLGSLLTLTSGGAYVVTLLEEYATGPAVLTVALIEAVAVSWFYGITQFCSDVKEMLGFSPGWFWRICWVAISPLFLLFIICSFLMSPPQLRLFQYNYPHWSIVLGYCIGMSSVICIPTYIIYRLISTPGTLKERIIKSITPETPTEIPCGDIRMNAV
Assay explanation: 3H-paroxetine displacement from male rat frontal cortical membranes (serotonin transporter affinity)
Format: binding
Answer as the number alone; pKi is minus log10 of concentration in mol/L.

Returns the measured pKi for the input compound. Input: COc1cccc2c1OC(CN1CC=C(c3c[nH]c4cc(F)ccc34)CC1)CO2 (stereo not shown) [Example 9] 9.22

----------
Tested on: human 5-HT1A receptors (Homo sapiens, UniProt P08908)
Construct: expressed in transfected cells; host or cells: CHO cells
Assay explanation: [3H] 8-OHDPAT displacement from 5-HT1A receptor in stably transfected CHO cells
Assay type: binding
Listed here: items and their measured log10 Ki.
Log scale reminder: Ki in nM, then log10 taken.

Worked cases, log10 Ki given:
Compound	log10 Ki
COc1cccc2c1OC(CN1CC=C(c3c[nH]c4ccc(C#N)cc34)CC1)CO2 (stereo not shown)	0.90
COc1cccc2c1O[C@@H](CN1CC=C(c3c[nH]c4ncccc34)CC1)CO2	0.63
NC(=O)c1cccc2c1OC(CN1CC=C(c3c[nH]c4ccc(F)cc34)CC1)CO2 (stereo not shown)	1.85

Look at this compound and give its reported log10 Ki. COc1cccc2c1OC(CN1CC=C(c3c[nH]c4cc(F)ccc34)CC1)CO2 (stereo not shown) 0.69

Need log10 Ki of COc1ccc2[nH]cc(C3=CCN(CC4COc5ccccc5O4)CC3)c2c1 (stereo not shown) , thanks. 1.43

Given Fc1ccc2[nH]cc(C3=CCN(CC4COc5ccccc5O4)CC3)c2c1 (stereo not shown) , state its recorded log10 Ki. 1.83

GET /values?readout=log10 Ki&item= COc1cccc2c1OC(CN1CC=C(c3c[nH]c4ccccc34)CC1)CO2 (stereo not shown) 0.45

----------
Tested on: serotonin transporter (Rattus norvegicus)
pKi listing for selected compounds.
Field pKi (float): negative decimal logarithm of the concentration in molar.

Compound	pKi
COc1cccc2c1OC(CN1CC=C(c3c[nH]c4ccc(C#N)cc34)CC1)CO2 (stereo not drawn)	8.98
COc1cccc2c1O[C@@H](CN1CC=C(c3c[nH]c4ccc(F)cc34)CC1)CO2	8.75
Nc1ccc2c(c1)O[C@@H](CN1CC=C(c3c[nH]c4ccccc34)CC1)CO2 (single isomer, unassigned)	8.94
COc1ccc2c(c1)OC(CN1CC=C(c3c[nH]c4ccccc34)CC1)CO2 (stereo not drawn)	7.40
Nc1ccc2c(c1)OCC(CN1CC=C(c3c[nH]c4ccccc34)CC1)O2 (stereo not drawn)	8.69

From here, focus on the item given below.
API: value(readout=pKi, system=serotonin transporter (Rattus norvegicus)) for record Fc1cccc2c1OC(CN1CC=C(c3c[nH]c4ccccc34)CC1)CO2 (stereo not drawn) 7.31

Data credit: patent US7041683B2
